B1: TRAF3IP2 (parent)
chain: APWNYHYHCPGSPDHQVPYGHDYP

Variants of: B1
Experiment: protein stability index of a GFP-peptide fusion (GPS, HEK-293T) (PSI 1-6); higher = more stable;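 also: lentivirally expressed fusions sorted by FACS into six bins by GFP to DsRed ratio, PSI derived from sequencing read proportions per bin multiplied by bin number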
Conditions: c terminus: a fixed tail appended
quantity: protein stability index

    mutation_code  obs_value
 0           Y23W       1.68
 1           H15M       2.02
 2           P24V       1.96
 3            A1H       3.12
 4           P10F       2.07
 5           D22Y       2.08
 6            N4T       2.63
 7           Y19P       2.51
 8            A1G       3.39
 9            A1K       2.81
10           Q16A       2.64
11           G11M       3.15
12            W3V       2.52
13            Y7A       3.15
14           P13G       2.05
15           G20Q       2.19
16           S12N        1.6
17            P2M       2.07
